# assayed-system: T1, purified human αvβ3 integrin protein (human, UniProt P06756 31-1048; P05106 27-788)
# T1 construct: Bought heterodimer; also called ABI; purified αvβ3 integrin
# T1 sequence (P06756 31-1048, form in doubt, chain 1 of 2): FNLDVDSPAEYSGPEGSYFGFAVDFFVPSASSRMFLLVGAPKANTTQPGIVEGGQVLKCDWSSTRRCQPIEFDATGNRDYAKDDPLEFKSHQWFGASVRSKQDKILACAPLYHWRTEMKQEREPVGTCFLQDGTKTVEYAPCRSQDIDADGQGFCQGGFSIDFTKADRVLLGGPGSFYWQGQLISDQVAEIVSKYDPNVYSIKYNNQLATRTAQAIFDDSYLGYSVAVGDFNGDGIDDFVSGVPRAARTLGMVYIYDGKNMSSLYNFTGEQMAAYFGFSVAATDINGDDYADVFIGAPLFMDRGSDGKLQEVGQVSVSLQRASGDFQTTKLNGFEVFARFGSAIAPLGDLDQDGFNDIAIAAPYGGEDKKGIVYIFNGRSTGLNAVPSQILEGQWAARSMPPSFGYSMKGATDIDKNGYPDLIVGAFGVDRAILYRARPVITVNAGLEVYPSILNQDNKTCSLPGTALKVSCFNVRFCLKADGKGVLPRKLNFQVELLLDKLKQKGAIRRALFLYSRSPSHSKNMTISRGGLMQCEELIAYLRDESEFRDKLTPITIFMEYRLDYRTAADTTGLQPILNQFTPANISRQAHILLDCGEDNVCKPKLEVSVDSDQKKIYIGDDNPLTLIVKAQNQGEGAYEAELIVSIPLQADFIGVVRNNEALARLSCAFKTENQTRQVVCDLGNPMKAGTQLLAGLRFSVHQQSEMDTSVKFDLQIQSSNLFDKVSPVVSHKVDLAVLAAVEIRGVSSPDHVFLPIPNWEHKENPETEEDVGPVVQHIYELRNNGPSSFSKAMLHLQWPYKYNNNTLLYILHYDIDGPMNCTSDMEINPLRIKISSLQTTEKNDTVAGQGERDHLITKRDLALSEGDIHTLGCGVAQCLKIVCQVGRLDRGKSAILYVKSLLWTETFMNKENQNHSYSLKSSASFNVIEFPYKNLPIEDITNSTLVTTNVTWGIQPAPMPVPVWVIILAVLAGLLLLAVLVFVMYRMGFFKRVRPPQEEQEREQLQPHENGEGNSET
# T1 sequence (P05106 27-788, form in doubt, chain 2 of 2): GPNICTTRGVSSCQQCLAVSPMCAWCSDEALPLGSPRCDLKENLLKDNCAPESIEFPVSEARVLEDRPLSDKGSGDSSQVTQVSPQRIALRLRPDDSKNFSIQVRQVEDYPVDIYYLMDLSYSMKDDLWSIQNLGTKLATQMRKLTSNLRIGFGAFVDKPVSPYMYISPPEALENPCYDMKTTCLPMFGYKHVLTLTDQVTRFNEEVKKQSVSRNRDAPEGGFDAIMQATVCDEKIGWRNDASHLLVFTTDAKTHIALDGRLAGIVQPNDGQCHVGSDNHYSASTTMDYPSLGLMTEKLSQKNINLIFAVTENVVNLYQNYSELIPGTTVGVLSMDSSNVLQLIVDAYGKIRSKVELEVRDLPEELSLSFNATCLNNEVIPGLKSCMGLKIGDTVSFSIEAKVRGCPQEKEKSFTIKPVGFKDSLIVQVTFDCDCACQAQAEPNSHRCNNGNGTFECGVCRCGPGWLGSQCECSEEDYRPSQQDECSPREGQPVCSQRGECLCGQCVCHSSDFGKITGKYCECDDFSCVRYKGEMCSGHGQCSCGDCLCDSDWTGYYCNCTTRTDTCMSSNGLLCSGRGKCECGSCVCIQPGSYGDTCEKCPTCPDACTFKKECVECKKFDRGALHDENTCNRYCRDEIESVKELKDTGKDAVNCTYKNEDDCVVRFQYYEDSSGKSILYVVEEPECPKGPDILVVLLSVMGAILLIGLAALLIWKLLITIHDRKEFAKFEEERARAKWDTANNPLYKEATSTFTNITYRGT
# test-protocol: competition with 125I-echistatin on purified human αvβ3 integrin, filter plate;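 note: test ligands incubated two hours at room temperature with the integrin, bound radioactivity retained on filters measured by gamma counting, IC50 obtained through nonlinear regression fitting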
pIC50: −log10 of the molar value. Bridges are numbered along the chain shown (N, C = ends). Primed or numbered codes have the meaning given here. Where no end group is shown, it is not given here. [ ]: non-standard residue; d: D form. The star is where a group is joined. Cypate = CC1(C)C(/C=C/C=C/C=C/C=C2/N(CCC(=O)*)c3ccc4ccccc4c3C2(C)C)=[N+](CCC(=O)O)c2ccc3ccccc3c21; DTPA = O=C(O)CN(CCN(CC(=O)O)CC(=O)O)CCN(CC(=O)O)CC(=O)*; Cypate′ = NIR carbocyanine dye; βAla = NCCC(=O)O
assay-endpoint: pIC50

Before answering, review these 4 worked examples.
INSERT INTO measurements (binder, assay_endpoint, val) VALUES
  ('CRGDSC-NH2 (disulfide 1-6; not fully specified (N-terminus); printed as Cypate-[Cyclo(Cys-Arg-Gly-Asp-Ser-Cys)-NH2]1-(D-Glucosamine); also: D-glucosamine attached to cypate) [Cypate-[Cyclo(Cys-Arg-Gly-Asp-Ser-Cys)-NH2]1-(D-Glucosamine)]', 'pIC50', 6.56),
  ('XCYXKTCTVRGD (HELM PEPTIDE1{[dF].C.Y.[dW].K.T.C.T.V.R.G.D.[am]}$PEPTIDE1,PEPTIDE1,2:R3-7:R3$$$V2.0; SMILES CC(C)[C@H](NC(=O)[C@@H](NC(=O)[C@@H]1CSSC[C@H](NC(=O)[C@H](N)Cc2ccccc2)C(=O)N[C@@H](Cc2ccc(O)cc2)C(=O)N[C@H](Cc2c[nH]c3ccccc23)C(=O)N[C@@H](CCCCN)C(=O)N[C@@H]([C@@H](C)O)C(=O)N1)[C@@H](C)O)C(=O)N[C@@H](CCCNC(=N)N)C(=O)NCC(=O)N[C@@H](CC(=O)O)C(N)=O) [H-DPhe-Cyclo(Cys-Tyr-DTrp-Lys-Thr-Cys)-Thr-Val-Arg-Gly-Asp-NH2]', 'pIC50', 6.14),
  ('{DTPA}-HDC(Et)RGDC(Et)FK-OH (SMILES CCSC[C@H](NC(=O)[C@H](CC(=O)O)NC(=O)CNC(=O)[C@H](CCCNC(=N)N)NC(=O)[C@H](CSCC)NC(=O)[C@H](CC(=O)O)NC(=O)[C@H](Cc1c[nH]cn1)NC(=O)CN(CCN(CCN(CC(=O)O)CC(=O)O)CC(=O)O)CC(=O)O)C(=O)N[C@@H](Cc1ccccc1)C(=O)N[C@@H](CCCCN)C(=O)O) [DTPA-His-Asp-Cys(Et)-Arg-Gly-Asp-Cys(Et)-Phe-Lys-OH]', 'pIC50', 6.15),
  ('XCYXKTCTVRGDX (HELM PEPTIDE1{[dF].C.Y.[dW].K.T.C.T.V.R.G.D.[dF].[am]}$PEPTIDE1,PEPTIDE1,2:R3-7:R3$$$V2.0; SMILES CC(C)[C@H](NC(=O)[C@@H](NC(=O)[C@@H]1CSSC[C@H](NC(=O)[C@H](N)Cc2ccccc2)C(=O)N[C@@H](Cc2ccc(O)cc2)C(=O)N[C@H](Cc2c[nH]c3ccccc23)C(=O)N[C@@H](CCCCN)C(=O)N[C@@H]([C@@H](C)O)C(=O)N1)[C@@H](C)O)C(=O)N[C@@H](CCCNC(=N)N)C(=O)NCC(=O)N[C@@H](CC(=O)O)C(=O)N[C@H](Cc1ccccc1)C(N)=O) [H-DPhe-Cyclo(Cys-Tyr-DTrp-Lys-Thr-Cys)-Thr-Val-Arg-Gly-Asp-DPhe-NH2]', 'pIC50', 6.45);

A = Cypate-RGDS-NH2 (also: cypate also carries one D-glucosamine) [Cypate(Arg-Gly-Asp-Ser-NH2)1-(D-Glucosamine)]
B = {Cypate′}-[βAla]CRGDC[dF]V-NH2 (disulfide 2-6) [Cypate-BAla-Cyclo(Cys-Arg-Gly-Asp-Cys)-DPhe-Val-NH2]
C = {DTPA}-GRGDSPK-OH [DTPA-Gly-Arg-Gly-Asp-Ser-Pro-Lys-OH]
D = {Cypate′}-[dF]CY[dW]KTCTVRGD-NH2 (disulfide 2-7) [Cypate-DPhe-Cyclo(Cys-Tyr-DTrp-Lys-Thr-Cys)-Thr-Val-Arg-Gly-Asp-NH2]
Prompt: Please list these in order of increasing pIC50. Thank you! Hello, could you send the labels back in the order asked? Thank you.
Response: D, A, C, B

// provenance: patent US20090028788A1
